Data origin: patent US20240287154A1

// values below are reported MC3R selectivity (relative to MC4R)
system_name: human MC4R (Homo sapiens)
assay_notes: Intracellular cAMP levels in live cells, MC3R selectivity relative to MC4R
Assay type: cell-based
assay_setup: cAMP assays in human MC3R and human MC4R stable cell lines
Non-standard residues stand in square brackets, D forms with d. Residues, ends and D or L forms follow the SMILES beside them. NMeK = CN[C@@H](CCCCN)C(=O)O; Nle = CCCC[C@H](N)C(=O)O

CCCC[C@H](NC(=O)[C@@H](NC(=O)[C@@H](N)Cc1ccc(O)cc1)C(C)C)C(=O)N[C@H](C)C(=O)N[C@@H](Cc1c[nH]cn1)C(=O)N[C@H](Cc1ccccc1)C(=O)N[C@@H](CCCNC(=N)N)C(=O)N[C@H](Cc1c[nH]c2ccccc12)C(=O)N[C@@H](CC(=O)O)C(N)=O [CTX-1109] (H-YV[Nle][dA]H[dF]R[dW]D-NH2) : 10.6
CC(=O)N[C@@H](CO)C(=O)NCC(=O)N[C@@H](Cc1c[nH]cn1)C(=O)N[C@H](Cc1ccccc1)C(=O)N[C@@H](CCCNC(=N)N)C(=O)N[C@H](Cc1c[nH]c2ccccc12)C(=O)N[C@@H](CC(=O)O)C(N)=O [CTX-1111, Ser-Gly-His-D-Phe-Arg-D-Trp-Asp] (Ac-SGH[dF]R[dW]D-NH2) : 0.1

Notebook: pull reported MC3R selectivity (relative to MC4R) for human MC4R (Homo sapiens), entry CCCC[C@H](NC(C)=O)C(=O)N[C@H](C)C(=O)N(C)[C@@H](CCCCN)C(=O)N[C@@H](Cc1ccccc1)C(=O)N[C@@H](CCCNC(=N)N)C(=O)N[C@H](Cc1c[nH]c2ccccc12)C(=O)N[C@@H](CC(=O)O)C(=O)N[C@@H](CCCNC(=N)N)C(=O)N[C@@H](Cc1ccccc1)C(=O)NCC(=O)O [CTX-1189] (Ac-[Nle][dA][NMeK]FR[dW]DRFG-OH)
1

----------
Item-by-item account of MC3R selectivity (relative to MC4R)
system_name: human MC4R (Homo sapiens, UniProt P32245)
Sequence (P32245 whole entry): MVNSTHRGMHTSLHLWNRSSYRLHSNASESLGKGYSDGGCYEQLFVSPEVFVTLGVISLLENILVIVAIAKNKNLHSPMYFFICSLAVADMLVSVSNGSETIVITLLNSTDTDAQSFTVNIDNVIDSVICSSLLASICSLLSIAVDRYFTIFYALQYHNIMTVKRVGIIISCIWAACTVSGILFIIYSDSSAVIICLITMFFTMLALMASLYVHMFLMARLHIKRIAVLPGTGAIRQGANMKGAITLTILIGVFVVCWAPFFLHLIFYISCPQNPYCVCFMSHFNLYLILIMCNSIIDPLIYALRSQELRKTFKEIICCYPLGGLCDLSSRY
assay_notes: Intracellular cAMP levels in live cells, MC3R selectivity relative to MC4R
Assay type: cell-based
assay_setup: cAMP assays in human MC3R and human MC4R stable cell lines
Non-standard residues stand in square brackets, D forms with d. Residues, ends and D or L forms follow the SMILES beside them. Nle = CCCC[C@H](N)C(=O)O
Note: the reply should be a number with no unit written.

CCCC[C@H](NC(=O)[C@@H](NC(=O)[C@@H](N)Cc1ccc(O)cc1)C(C)C)C(=O)N[C@@H](C)C(=O)N[C@@H](Cc1c[nH]cn1)C(=O)N[C@@H](Cc1ccccc1)C(=O)N[C@@H](CCCNC(=N)N)C(=O)N[C@H](Cc1c[nH]c2ccccc12)C(=O)N[C@@H](CC(=O)O)C(=O)N[C@@H](CCCNC(=N)N)C(=O)N[C@@H](Cc1ccccc1)C(=O)NCC(=O)O [CTX-1133] (H-YV[Nle]AHFR[dW]DRFG-OH) : 7.4

Form field: reported MC3R selectivity (relative to MC4R) of CCCC[C@H](NC(C)=O)C(=O)N[C@H](C)C(=O)N[C@@H](Cc1c[nH]cn1)C(=O)N[C@@H](Cc1ccccc1)C(=O)N[C@@H](CCCNC(=N)N)C(=O)N[C@H](Cc1c[nH]c2ccccc12)C(=O)N[C@H](Cc1ccccc1)C(=O)N[C@@H](CCCNC(=N)N)C(=O)N[C@@H](Cc1ccccc1)C(=O)NCC(=O)O [CTX-1530] (Ac-[Nle][dA]HFR[dW][dF]RFG-OH)
15
